Catalogue of pIC50 values
Tested on: SIRPα signalling induced by A549 cells
Assay: Assay B: SIRPα signalling assay using A549 cells
Assay type: cell-based
Settings: Homo sapiens, 48 h compound incubation, Jurkat PathHunter SIRPaV1 reporter cells, read-out: Inhibition of SIRPα signalling induced by A549 cells: IC50
Scale: pIC50 equals -log10([C]), with [C] in mol/L.

Worked set:
[
  {
    "SMILES STRING": "Cn1cnnc1C1(F)CCN(c2c(C#N)cc(C(F)(F)F)cc2-c2cnc3nc(C4(C)CC4)nn3c2)CC1",
    "STUDY TARGET": "SIRPα signalling induced by A549 cells",
    "PARAMETER MEASURED": "pIC50",
    "RECORDED RESULT": 8.22
  },
  {
    "SMILES STRING": "Cn1cnnc1C1CCN(c2c(C#N)cc(Cl)cc2-c2ccc(F)nc2)CC1",
    "STUDY TARGET": "SIRPα signalling induced by A549 cells",
    "PARAMETER MEASURED": "pIC50",
    "RECORDED RESULT": 7.74
  },
  {
    "SMILES STRING": "Cn1cnnc1C1(F)CCN(c2c(C#N)cc(F)cc2-c2cnc3nn(C(C)(C)C)cc3c2)CC1",
    "STUDY TARGET": "SIRPα signalling induced by A549 cells",
    "PARAMETER MEASURED": "pIC50",
    "RECORDED RESULT": 8.00
  },
  {
    "SMILES STRING": "Cn1cnnc1C1(F)CCN(c2c(C#N)cc(C(F)(F)F)cc2-c2ccnnc2)CC1",
    "STUDY TARGET": "SIRPα signalling induced by A549 cells",
    "PARAMETER MEASURED": "pIC50",
    "RECORDED RESULT": 7.68
  }
]

-- ask Answer with the recorded pIC50 for the compound listed here: Cn1cnnc1C1CCN(c2c(-c3ccc(F)nc3)ccc(F)c2C#N)CC1
-- reply 7.62

* * *

Catalogue of IC50 values
Target: QPCTL (Homo sapiens)
Sequence (Q9NXS2 whole entry): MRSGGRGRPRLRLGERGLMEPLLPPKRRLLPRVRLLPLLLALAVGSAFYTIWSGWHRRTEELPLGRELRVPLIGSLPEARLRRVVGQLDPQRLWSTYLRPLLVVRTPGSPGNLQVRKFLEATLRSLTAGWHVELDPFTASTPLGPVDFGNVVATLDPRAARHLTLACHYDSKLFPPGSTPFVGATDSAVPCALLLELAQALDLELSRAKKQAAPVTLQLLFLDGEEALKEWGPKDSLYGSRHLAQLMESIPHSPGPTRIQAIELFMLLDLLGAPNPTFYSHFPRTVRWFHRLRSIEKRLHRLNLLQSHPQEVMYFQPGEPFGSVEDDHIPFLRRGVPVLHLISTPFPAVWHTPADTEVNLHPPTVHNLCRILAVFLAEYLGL
Express your answer in nM, writing the number without its unit.

Worked set:
[
  {
    "COMPOUND": "Cn1cnnc1C1(F)CCN(c2c(C#N)cc(C(F)(F)F)cc2-c2ccnnc2)CC1",
    "RECORDED RESULT": 2
  },
  {
    "COMPOUND": "Cn1cnnc1C1CCN(c2c(C#N)ccc(OC(F)F)c2-c2ccc(F)nc2)CC1",
    "RECORDED RESULT": 2
  },
  {
    "COMPOUND": "Nc1ncc(C2CCN(c3ncccc3-c3ccc(F)nc3)CC2)s1 [Prior art Compound 1094, reference compound]",
    "RECORDED RESULT": 111
  },
  {
    "COMPOUND": "Cn1cnnc1C1(F)CCN(c2c(C#N)cc(F)cc2-c2cnc3nn(C(C)(C)C)c(Cl)c3c2)CC1",
    "RECORDED RESULT": 2
  },
  {
    "COMPOUND": "Cn1cnnc1C1CCN(c2c(C#N)cc(F)cc2-c2cnc3nn(C(C)(C)C)c(Cl)c3c2)CC1",
    "RECORDED RESULT": 1
  }
]

-- ask Answer with the recorded IC50 for the compound listed here: Cn1cnnc1C1(F)CCN(c2c(C#N)cc(Cl)cc2-c2cnc3nn(C(C)(C)C)cc3c2)CC1
-- reply 1

-- ask Answer with the recorded IC50 for the compound listed here: Cn1cnnc1C1(F)CCN(c2c(C#N)cc(C(F)(F)F)cc2-c2cnc3nc(C4(C)CC4)nn3c2)CC1
-- reply 1

-- ask Answer with the recorded IC50 for the compound listed here: COc1ccc(-c2ccc(F)nc2)c(N2CCC(c3nncn3C)CC2)c1C#N
-- reply 1

All figures here come from patent US20240317712A1.
